Target System: AURKA (Homo sapiens)
Sequence (O14965 1-403): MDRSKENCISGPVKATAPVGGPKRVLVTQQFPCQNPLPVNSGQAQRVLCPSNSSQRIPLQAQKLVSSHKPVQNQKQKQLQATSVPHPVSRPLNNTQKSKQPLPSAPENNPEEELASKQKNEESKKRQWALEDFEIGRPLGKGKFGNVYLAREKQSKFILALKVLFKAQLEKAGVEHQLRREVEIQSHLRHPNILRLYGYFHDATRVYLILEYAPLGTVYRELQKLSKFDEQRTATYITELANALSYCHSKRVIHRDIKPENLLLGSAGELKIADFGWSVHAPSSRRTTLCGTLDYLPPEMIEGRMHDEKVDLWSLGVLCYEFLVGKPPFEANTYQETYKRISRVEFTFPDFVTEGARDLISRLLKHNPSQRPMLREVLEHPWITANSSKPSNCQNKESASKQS
Procedure Summary: cell-based
Parameters: species or system HEK293T; NanoBRET tracer displacement in permeabilized cells, NanoLuc fusion protein, Tracer K10
Experimental Conditions: permeabilized cells; read-out: AURKA permeabilized (IC50±sd)/µM
Test Readout: IC50 (µM)

Query Smiles: Cc1ncsc1-c1ccc(CNC(=O)[C@@H]2C[C@H](O)CN2C(=O)[C@@H](NC(=O)CCOCCOCCOCCN2CCN(c3cc(Nc4cc(C5CC5)[nH]n4)nc(Nc4ccc(CC#N)cc4)n3)CC2)C(C)(C)C)cc1
Endpoint Value: 1.89

---

The following compounds are listed with their measured P.Value (compound/DMSO) values.
Target System: kinase protein levels in MCF-7 cells (Homo sapiens)
Construct: endogenous in cells; host or cells: MCF-7
Sequence (A0A096LP01 whole entry): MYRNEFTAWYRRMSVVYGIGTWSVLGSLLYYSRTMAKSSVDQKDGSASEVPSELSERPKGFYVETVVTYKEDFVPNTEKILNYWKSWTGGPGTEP
Procedure Summary: TMT-labeled quantitative proteomics
Type: cell-based
Experimental Conditions: protein LINC00493; MCF; 0.25µM; set4

Query Smiles: Cc1ncsc1-c1ccc(CNC(=O)[C@@H]2C[C@@H](O)CN2C(=O)[C@@H](NC(=O)CCOCCOCCOCCOCCN2CCN(c3ccc(Nc4ncc(Cl)c(Nc5ccccc5C(N)=O)n4)cc3)CC2)C(C)(C)C)cc1
P.Value (compound/DMSO): 0.5319

Query Smiles: Cc1ncsc1-c1ccc(CNC(=O)[C@@H]2C[C@@H](O)CN2C(=O)[C@@H](NC(=O)CCOCCOCCOCCN2CCN(c3cc(Nc4cc(C5CC5)[nH]n4)nc(Nc4ccc(CC#N)cc4)n3)CC2)C(C)(C)C)cc1
P.Value (compound/DMSO): 0.1285

Query Smiles: CCOC(=O)c1cc(Nc2cc(C3CC3)[nH]n2)nc(Nc2ccc(CC#N)cc2)n1
P.Value (compound/DMSO): 0.002655

Query Smiles: CC(=O)N[C@H](C(=O)N1C[C@H](O)C[C@H]1C(=O)NCc1ccc(-c2scnc2C)cc1OCCOCCOCCOCCOCCC(=O)N1CCN(c2ccc(Nc3ncc(Cl)c(Nc4ccccc4C(N)=O)n3)cc2)CC1)C(C)(C)C
P.Value (compound/DMSO): 0.8916

---

Target System: UniProt:P40337
Sequence (P40337 whole entry): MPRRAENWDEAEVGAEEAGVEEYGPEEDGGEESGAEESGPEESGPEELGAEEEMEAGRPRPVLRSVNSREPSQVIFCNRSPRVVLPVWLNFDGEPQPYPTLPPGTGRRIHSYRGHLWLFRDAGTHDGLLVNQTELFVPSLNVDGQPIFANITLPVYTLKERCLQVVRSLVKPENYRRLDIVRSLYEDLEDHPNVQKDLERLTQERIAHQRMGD
Procedure Summary: cell-based
Parameters: full-length, NanoLuc fusion (Promega N2741); species or system HEK293T; NanoBRET VHL tracer displacement in permeabilized cells, NanoLuc-VHL fusion
Experimental Conditions: permeabilized cells; read-out: VHL permeabilized (IC50±sd)/µM
The following molecules are listed with their measured IC50 values.

Molecule: Cc1ncsc1-c1ccc(CNC(=O)[C@@H]2C[C@@H](O)CN2C(=O)[C@@H](NC(=O)CCOCCOCCOCCOCCN2CCN(c3ccc(Nc4ncc(Cl)c(Nc5ccccc5C(N)=O)n4)cc3)CC2)C(C)(C)C)cc1 [6-b]
IC50 [µM]: 1.41
--
Molecule: Cc1ncsc1-c1ccc(CNC(=O)[C@@H]2C[C@@H](O)CN2C(=O)[C@@H](NC(=O)CCOCCOCCOCCOCCOCCOCCN2CCN(c3cc(Nc4cc(C5CC5)[nH]n4)nc(Nc4ccc(CC#N)cc4)n3)CC2)C(C)(C)C)cc1 [4-b]
IC50 [µM]: 0.97
--
Molecule: Cc1ncsc1-c1ccc(CNC(=O)[C@@H]2C[C@@H](O)CN2C(=O)[C@@H](NC(=O)CCOCCOCCN2CCN(c3ccc(Nc4ncc(Cl)c(Nc5ccccc5C(N)=O)n4)cc3)CC2)C(C)(C)C)cc1 [6-a]
IC50 [µM]: 1.12
--
Molecule: CC(=O)N[C@H](C(=O)N1C[C@H](O)C[C@H]1C(=O)NCc1ccc(-c2scnc2C)cc1OCCOCCOCCOCCOCCC(=O)N1CCN(c2cc(Nc3cc(C4CC4)[nH]n3)nc(Nc3ccc(CC#N)cc3)n2)CC1)C(C)(C)C [4-d]
IC50 [µM]: 0.366
--
Molecule: Cc1ncsc1-c1ccc(CNC(=O)[C@@H]2C[C@@H](O)CN2C(=O)[C@@H](NC(=O)CCCCCCN2CCN(c3cc(Nc4cc(C5CC5)[nH]n4)nc(Nc4ccc(CC#N)cc4)n3)CC2)C(C)(C)C)cc1 [4-c]
IC50 [µM]: 4.32

Cited source for all entries: paper PMC11851430
